# Test system: Procathepsin L (Homo sapiens, UniProt P07711)
# Sequence (P07711 whole entry): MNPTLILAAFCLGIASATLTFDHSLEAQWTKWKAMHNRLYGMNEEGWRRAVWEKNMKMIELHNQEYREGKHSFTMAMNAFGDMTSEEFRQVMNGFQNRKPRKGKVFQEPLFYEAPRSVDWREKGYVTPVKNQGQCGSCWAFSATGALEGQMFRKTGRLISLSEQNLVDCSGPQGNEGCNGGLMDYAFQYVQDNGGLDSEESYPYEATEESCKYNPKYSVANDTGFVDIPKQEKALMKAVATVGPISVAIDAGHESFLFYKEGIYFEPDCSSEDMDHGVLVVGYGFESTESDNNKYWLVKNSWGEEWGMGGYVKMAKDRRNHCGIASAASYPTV
# Protocol summary: Inhibition of CTSL (unknown origin) using Z-Phe-Arg-AMC as substrate by fluorometric assay
Reported endpoint: IC50 (µM)
Dear colleague, please return just the value in µM, with no unit written.

input: Which IC50 value belongs to O=C(O)/C=C/c1ccc(O)cc1O ?
output: 930
